- Assay type: in vitro ADME
- condition.summary: human plasma, 37° C., 10 μM start, prodrug remaining, 15 min
Note to self: use Condition met only for [ ] (μM) t15 min. Prodrug (Human) readings below 8 µM; a reading exactly at 8 µM still gets Condition not met.

compound | answer.label
CCOC(=O)c1c(OC(=O)C(C)C)c(OC(=O)C(C)C)c(C(=O)N(C)C)n1-c1ccc(OCCOCCOCCOC)cc1 [UL1-098] | Condition met
COc1ccc(-n2c(C(=O)N(C)C)c(OC(=O)C(C)C)c(OC(=O)C(C)C)c2C(=O)N(C)C)cc1 [UL1-114] | Condition not met
CCOC(=O)c1c(O)c(OCOP(=O)(O)O)c(C(=O)N(C)C)n1-c1ccc(OC)cc1 [UL1-109] | Condition met
CCOC(=O)c1c(OC(=O)C(C)(C)COCCOCCOP(=O)(O)O)c(OC(=O)C(C)(C)COCCOCCOP(=O)(O)O)c(C(=O)N(C)C)n1-c1ccc(OC)cc1 [UL1-117] | Condition not met
CCOC(=O)c1c(OC(=O)C(C)(C)COCCOCCOC)c(OC(=O)C(C)(C)COCCOCCOC)c(C(=O)N(C)C)n1-c1ccc(OC)cc1 [UL1-111] | Condition met
CCOC(=O)c1c(OCOP(=O)(O)O)c(O)c(C(=O)N(C)C)n1-c1ccc(OC)cc1 [UL1-115] | Condition not met
